target: SARS-CoV spike protein (full length spike, trimeric, conjugated to beads) (SARS-CoV, UniProt P59594 14-1190)
Quick list: median fluorescence fold over isotype control per entry.
Give just the number in fold over isotype control; leave the unit off.

Inquiry: Entry under review: antibody 412 (antibody, V domains shown) VH: QVQLVQSGAEVKKPGASVKVSCKASGYTFTSYGISWVRQAPGQGLEWMGWISAYNGNTNYAQKLQGRVTMTTDTSTSTAYMELRSLRSDDTAVYYCARVTVEAIFGVVILPLKNWFDPWGQGTLVTVSS VL: QSVLTQPPSVSGAPGQRVTISCTGSSSNIGAGYDVHWYQQLPGTAPKLLIYGNSNRPSGVPDRFSGSKSGTSASLAITGLQAEDEADYYCQSYDSSLTLYVFGTGTKVTVL . Reported median fluorescence fold over isotype control?
Reply text: 1.09

Inquiry: Return reported median fluorescence fold over isotype control; argument: antibody 409 (antibody, V domains shown) VH: QVTLRESGPALVKPTQTLTLTCTFSGFSLSTSGMCVSWIRQPPGKALEWLALIDWDDDKYYSTSLKTRLTISKDTSKNQVVLTMTNMDPVDTATYYCARTTYYYVSGRRAEFDPWGQGTLVTVSS VL: NFMLTQPHSVSESPGKTVTISCTGSSGSIASNYVQWYQQRPGSAPTTVIYEDNQRPSGVPDRFSGSIDSSSNSASLTISGLKTEDEADYYCQSYDSSNQGVFGGGTKLTVL
Reply text: 1.03

Inquiry: Give the measured median fluorescence fold over isotype control of antibody 395 (antibody, V domains shown) VH: QVQLVQSGSELKKPGASVKLSCQASGYTFSNHAMNWVRQAPGQGLEWMGWINTNTGNPTYAQGFTGRFVFSLDTSVGTAYLHISSLKAEDTAFYYCARASARPGVATNLDFWGQGTLVVVSS VL: DIQMTQSPSSLSASVGDRVTITCRTSQNIDNYLNWYQQKPGKAPNLLIYAASRLHSGVPSRFSGSGSGTDFTLIISSLQPEDLATYYCQQSYSNPLTFGPGTKVDIR .
Reply text: 1.16

Inquiry: For antibody 396 (antibody, V domains shown) VH: QVQLQQWGAGLLKPSETLSLTCAVYGGSFSGYYWSWIRQPPGKGLEWIGEIIHSGSTNYNPSLKSRVTISVDTSKNQFSLKLSSVTAADTAVYYSARRTGLLWFREGSYYFDYWGQGTLVTVSS VL: DIQMTQSPSSLSASVGDRVTITCRASQGIRNDLGWYQQKPGKAPKRLIYAASSLQSGVPSRFSGSGSGTEFTLTISSLQPEDFATYYCLQHNSYPLTFGGGTKVEIK , what is its reported median fluorescence fold over isotype control?
Reply text: 1.36

Inquiry: Consider the binder antibody 423 (antibody, V domains shown) VH: EVQLVESGGGLIQPGGSLRISCAASGFTVRNNHMSWVRQAPGKGLEWVSVFYRGGTTYYADSVKGRFTISRDDSKNTVDLQMNSLRGEDTAVYYCARGLSVAASGYFDCWGQGTLVTVSS VL: DIQMTQSPSSVSASVGDTVTITCRANQGISSWLAWYQQVPGKAPELLIYATSTLQSGVPSRFSGSGSGTDFTLTISSLQPEDFATYYCQQANSFPFTFGPGTKVDIK and give its measured median fluorescence fold over isotype control.
Reply text: 1.23

Inquiry: Looking for the measured median fluorescence fold over isotype control of antibody 392 (antibody, V domains shown) VH: QVQLQESGPGLVKPSGTLSLTCAVSGGSISSSNWWSWVRQPPGKGLEWIGEIYHSGSTNYNPSLKSRVTISVDKSKNQFSLKLSSVTAADTAVYYCARGWRATLYGMDVWGQGTTVTVSS VL: QSALTQPASVSGSPGQSITISCTGTSSDVGSYNLVSWYQQHPGKAPKLMIYEVSKRPSGVSNRFSGSKSGNTASLTISGLQAEDEADYYCCSYAGSSTWVFGGGTKLTVL , can you help?
Reply text: 1.08

Inquiry: Which median fluorescence fold over isotype control is reported for this binder? antibody 431 (antibody, V domains shown) VH: QVQLVESGGGVVQPGRSLRLSCAASGFTFSSYAMHWVRQAPGKGLEWLAVISYDGSNKYYADSVKGRFTISRDNSKNTLYLQMNSLRAEDTAVYYCARSFRGGYYYGMDVWGQGTTVTVSS VL: DIQLTQSPSFLSASVGDRVTITCRASQGISSYLAWYQQKPGKAPKLLIYAASTLQSGVPSRFSGSGSGTEFTLTISSLQPEDFATYYCQQLNSYPLFTFGPGTKVDIK
Reply text: 49.9

Inquiry: Request the reported median fluorescence fold over isotype control associated with antibody 404 (antibody, V domains shown) VH: QVQLVESGGGVVQPGRSLRLSCAASGFTFSSYGMHWVRQAPGKGLEWVAVIWYDGSNKYYADSVKGRFTISRDNSKNTLYLQMNSLRAEDTAVYYCARLAVDISFDGSDGMDVWGQGTTVTVSS VL: SYELTQPPSVSVSPGQTARITCSGDALPKKYAYWYQQKSGQAPVLVIYEDSKRPSGIPERFSGSSSGTMATLTISGAQVEDEADYYCYSTDSSGKGVFGTGTKVTVL
Reply text: 1.04

Inquiry: Which median fluorescence fold over isotype control reading was recorded for the binder antibody 385 (antibody, V domains shown) VH: QVQLVESGGGVVQPGRSLRLSCAASGFTFSSYAIHWVRQAPGKGLEWVAVISYDGSNKYYADSVKGRFTISRDNSKNTLYLQMNSLRAEDTAVYYCARPRSGSYWGAFDIWGQGTMVTVSS VL: QSVLTQPPSVSGAPGQRVTISCTGSSSNIGARYDVHWYQQLPGTAPKLLIYGNSNRPSGVPDRFSGSKSGTSASLAITGLQAEDEADYYCQSYDSSLRGVFGGGTKLTVL ?
Reply text: 59.6
